- target.or.system: Amine oxidase [flavin-containing] B (Homo sapiens, UniProt P27338)
- Sequence (P27338 whole entry): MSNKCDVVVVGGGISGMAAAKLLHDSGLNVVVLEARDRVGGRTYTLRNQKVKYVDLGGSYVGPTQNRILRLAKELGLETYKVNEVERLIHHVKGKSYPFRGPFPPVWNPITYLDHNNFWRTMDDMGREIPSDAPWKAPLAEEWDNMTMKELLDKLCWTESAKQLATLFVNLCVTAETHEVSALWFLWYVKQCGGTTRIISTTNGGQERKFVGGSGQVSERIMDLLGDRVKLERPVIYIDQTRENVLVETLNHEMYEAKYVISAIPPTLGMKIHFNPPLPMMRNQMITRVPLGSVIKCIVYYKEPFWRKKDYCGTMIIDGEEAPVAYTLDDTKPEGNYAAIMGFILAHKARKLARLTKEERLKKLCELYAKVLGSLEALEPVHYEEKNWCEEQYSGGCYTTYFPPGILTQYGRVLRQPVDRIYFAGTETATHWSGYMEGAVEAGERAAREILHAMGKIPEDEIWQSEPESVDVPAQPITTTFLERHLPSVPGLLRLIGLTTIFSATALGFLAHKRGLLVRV
- measurement.protocol: Inhibition of human recombinant MAO-B expressed in baculovirus infected BTI cells using p-tyramine as substrate after 15 mins by Amplex Red-based fluorescence assay
- Assay type: cell-based
pIC50: −log10 of the molar value.
measured.metric: pIC50

# compound, readout.value
data = [
    ("CC(=O)N1N=C(c2ccc([N+](=O)[O-])cc2)O[C@H]1c1ccc(Cl)c(Cl)c1", 6.28),
]

1: CC(=O)N1N=C(c2ccc(Cl)cc2)OC1c1ccc(Cl)c(Cl)c1 (racemic)
2: CC(=O)N1N=C(c2ccc(Cl)cc2)O[C@@H]1c1ccc(Cl)c(Cl)c1
3: CC(=O)N1N=C(c2ccc(Br)cc2)OC1c1ccc(Cl)c(Cl)c1 (stereo not given)
4: CC(=O)N1N=C(c2ccccc2C)OC1c1ccc(Cl)c(Cl)c1 (stereo not given)
5: CC(=O)N1N=C(c2ccc([N+](=O)[O-])cc2)O[C@@H]1c1ccc(Cl)c(Cl)c1
# rank_down: sort by pIC50, max first A ranking is expressed here by listing the labels in the requested order.
5, 3, 2, 1, 4

###

- target.or.system: Amine oxidase [flavin-containing] B (Homo sapiens, UniProt P27338)
- measurement.protocol: Inhibition of human recombinant MAO-B expressed in baculovirus infected BTI cells using p-tyramine as substrate after 15 mins by Amplex Red-based fluorescence assay
pIC50: −log10 of the molar value.
measured.metric: pIC50

# molecule, pIC50
data = [
    ("CC(=O)N1N=C(c2ccc(C)cc2)OC1c1ccc(Cl)c(Cl)c1 (centres undefined)", 7.71),
]

P: CC(=O)N1N=C(c2ccc([N+](=O)[O-])cc2)OC1c1ccc(Cl)c(Cl)c1 (racemic)
Q: COc1ccc(C2=NN(C(C)=O)C(c3ccc(Cl)c(Cl)c3)O2)cc1 (centres undefined)
R: CC(=O)N1N=C(c2ccncc2)OC1c1ccc(Cl)c(Cl)c1 (centres undefined)
Order each entry by recorded pIC50, climbing from the minimum. Please write the labels in the order that was asked for.
R, Q, P
